B1: PRIM1 (parent)
chain: CCSSADICPKCWTLMTMAIRIIDR

- Variants of: B1
- Experiment Description: protein stability index of a GFP-peptide fusion (GPS, HEK-293T) (PSI 1-6); higher = more stable;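 note: lentivirally expressed fusions sorted by FACS into six bins by GFP to DsRed ratio, PSI derived from sequencing read proportions per bin multiplied by bin number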
- Condition Parameters: c terminus: a fixed tail appended
Label Fulfilled for high-side protein stability index (at or above 2) and Not fulfilled for low-side protein stability index (below it).

Please review the following examples before continuing.
CCSSADICPKCWTNMTMAIRIIDR : Not fulfilled
CCSFADICPKCWTLMTMAIRIIDR : Fulfilled
CCSSADICPKCWTLYTMAIRIIDR : Not fulfilled

Q: Is reported protein stability index greater than or equal to 2 here: `CCSSADICPKCWTLMTMMIRIIDR`
Ans: Not fulfilled

Q: Could you please find out whether `CCSSADICPKCWTLMCMAIRIIDR` has protein stability index that meets 2 or exceeds it?
Ans: Not fulfilled

Q: Has `CCSSADICPKCWTLMTMAIRIMDR` a recorded protein stability index greater than or equal to 2?
Ans: Not fulfilled

Q: Identify whether the reported protein stability index of the following variant is 2 or greater: `ECSSADICPKCWTLMTMAIRIIDR`
Ans: Not fulfilled
